Experiment: VP16 counterscreen qHTS for inhibitors of ROR gamma transcriptional activity;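 also: Gal4-VP16 expression switched on by copper sulfate through the metallothionein promoter; nearly all actives have a fitted effect of over 50% in size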
Conditions: Drosophila S2 Gal4-VP16 UAS-luciferase, luminescence, 20 h; series mostly up to 53.6 µM
In all, about 310,000 compounds went through this assay and about 11,000 (3.5%) were called active. Roughly 8% stayed inconclusive and do not appear here. Calls follow the shape of the dose curve; as a rule, active = well fitted inhibition curve with a large enough effect; inconclusive = small, poorly fitted or top-dose-only effect, or effect the other way; inactive = flat fitted curve, though single readings scatter. The sample holds actives, similar compounds and a random draw of the others, so the mix is not that of the screen.
Labels: YES for active, NO for inactive

- compound: "COc1cccc(NC(=O)[C@H](Cc2c[nH]c3ccccc23)NC(=O)[C@@H]2Cc3ccccc3CN2)c1"
  label-value: "NO"
- compound: "Cc1ccc(-c2cc(C(=O)N/N=C/C=C/c3ccccc3)n[nH]2)o1"
  label-value: "YES"
- compound: "CCOc1cc(NC(=O)c2ccccn2)c(OCC)cc1NC(=O)c1ccc(OC)cc1"
  label-value: "NO"
- compound: "COC(=O)CSc1nccc(-c2cccs2)n1"
  label-value: "NO"
- compound: "Cc1cccc(OCC(=O)NCCCNC(=O)c2ccccn2)c1"
  label-value: "NO"
- compound: "Cc1cc(/C=N/NC(=O)CC2(C)OCCO2)c(C)n1-c1ccc(Cl)c(Cl)c1"
  label-value: "YES"
- compound: "O=C(Nc1ccnc(-c2ccncc2)n1)c1cccs1"
  label-value: "NO"
- compound: "O=C(CCc1ccccc1)NCc1cccnc1"
  label-value: "NO"
- compound: "COc1cc(/C=N/NC(=O)c2cccnc2)ccc1OC(=O)c1cccc(Br)c1"
  label-value: "NO"
- compound: "Cc1ccccc1CN1CCNC(=O)C1CC(=O)NCCC1=CCCCC1 (configuration not stated)"
  label-value: "NO"
- compound: "CN(Cc1ccccc1)C(=O)CCc1ccccc1"
  label-value: "NO"
- compound: "CC[C@]1(c2ccccc2OC)C(=O)N(C(=O)OC)N1C(=O)OC"
  label-value: "NO"
- compound: "Cc1ccc(-n2c(C)cc(/C=N\\NC(=O)CC(=O)NC(C)C)c2C)cc1"
  label-value: "NO"
- compound: "CCOC(=O)C1CCCN(CCSc2ccc(C)cc2)C1 (configuration not stated)"
  label-value: "NO"
- compound: "COc1ccc(CNC(=O)c2ccc(Br)s2)cc1OC"
  label-value: "NO"
- compound: "Cc1ccc(S(=O)(=O)N(CC(O)CN2CCCCC2)c2cccc([N+](=O)[O-])c2)cc1 (configuration not stated)"
  label-value: "NO"
- compound: "CN1CCN(S(=O)(=O)c2ccc(NC(=S)NC(=O)C3CC3)cc2)CC1"
  label-value: "NO"

----------
Test: VP16 counterscreen qHTS for inhibitors of ROR gamma transcriptional activity;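 also: Gal4-VP16 expression switched on by copper sulfate through the metallothionein promoter; nearly all actives have a fitted effect of over 50% in size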; also: potency is read from the fitted curve at half-maximal effect
Settings: Drosophila S2 Gal4-VP16 UAS-luciferase, luminescence, 20 h; series mostly up to 53.6 µM
About 11,000 (3.5%) of roughly 310,000 compounds were called active. Another 8% or so got no clear call; they are omitted. What follows is part of a selection rich in actives, with near analogues and random picks from the rest.
measured-property: Potency

- compound: "Brc1cc(/C=N/n2cnnc2)oc1Br"
  measured-property: "Potency"
  reading: "inactive"
- compound: "Cc1cc(Oc2ccc(Cl)cc2)nc(SCC(=O)c2ccccc2)n1"
  measured-property: "Potency"
  reading: "inactive"
- compound: "O=C(Nc1ccccc1C(F)(F)F)N1CCCC1c1cccnc1 (stereo not drawn)"
  measured-property: "Potency"
  reading: "inactive"
- compound: "CCOC(=O)N1CCN(C(c2cccnc2)c2ccc3cccnc3c2O)CC1 (stereo not drawn)"
  measured-property: "Potency"
  reading: "6.31 µM (active)"
- compound: "O=C(NC(=S)N1CCCCC1c1cccnc1)c1ccccc1 (stereo not drawn)"
  measured-property: "Potency"
  reading: "4.47 µM (active)"
- compound: "CS(=O)(=O)Nc1cccc(C2=NN(C(=O)c3cccc(F)c3)C(c3cccs3)C2)c1 (stereo not drawn)"
  measured-property: "Potency"
  reading: "inactive"
- compound: "CC(C)C[C@H]1CN=C(Nc2ccccc2)N1CC1CCCCC1"
  measured-property: "Potency"
  reading: "inactive"
- compound: "COc1ccc(C(=O)NC(=S)N2CCCCC2c2cccnc2)cc1OC (stereo not drawn)"
  measured-property: "Potency"
  reading: "17.8 µM (active)"
- compound: "O=C(c1cc(C(F)(F)F)cc(C(F)(F)F)c1)N1CCC[C@@]2(CCN(c3ccccn3)C2)C1"
  measured-property: "Potency"
  reading: "inactive"
- compound: "O=C(/C=C/c1ccc2c(c1)OCCO2)c1ccc(O)cc1"
  measured-property: "Potency"
  reading: "4.47 µM (active)"
- compound: "Fc1ccc(Br)cc1/C=N/n1cnnc1"
  measured-property: "Potency"
  reading: "inactive"
- compound: "CCCN1C2CCCC1CC(NC(=O)NC13CC4CC(CC(C4)C1)C3)C2 (stereo not drawn)"
  measured-property: "Potency"
  reading: "inactive"
- compound: "CCN(CC)c1ccc(/C=N/Nc2nc(C)cc(C)n2)c(O)c1"
  measured-property: "Potency"
  reading: "4.47 µM (active)"
- compound: "COc1ccc(C(=O)Cc2cnn(-c3ccccc3)c2)c(O)c1"
  measured-property: "Potency"
  reading: "inactive"
- compound: "O=C(c1cc(C(F)(F)F)cc(C(F)(F)F)c1)N1CCC2(CC1)CN(c1ccncc1)C2"
  measured-property: "Potency"
  reading: "inactive"
- compound: "COc1ccc(/C=N/Nc2cc(N3CCOCC3)nc(C)n2)c(OC)c1"
  measured-property: "Potency"
  reading: "inactive"
- compound: "NC(=O)c1cc(S(=O)(=O)N2CCCC2)ccc1OCc1ccc(F)cc1"
  measured-property: "Potency"
  reading: "inactive"
- compound: "CCSc1nsc(NC(=O)Nc2ccccc2OC)n1"
  measured-property: "Potency"
  reading: "inactive"
- compound: "CN1C(=O)CN2CCc3ccccc3C2c2cc(Cl)ccc21 (stereo not drawn)"
  measured-property: "Potency"
  reading: "inactive"
- compound: "CCN(CC)c1ccc(/C=N/NC(=O)CNC(=O)c2cccnc2)cc1"
  measured-property: "Potency"
  reading: "inactive"
- compound: "COc1ccc(NC(=O)CN2C(=O)COc3ccc(S(=O)(=O)N4CCOCC4)cc32)c(OC)c1"
  measured-property: "Potency"
  reading: "inactive"
- compound: "COc1ccc(C(=O)N2CCCC(C(=O)c3ccccc3OC)C2)cc1OC (stereo not drawn)"
  measured-property: "Potency"
  reading: "inactive"
- compound: "Cc1nc(Cl)cc(N/N=C/c2ccccc2)n1"
  measured-property: "Potency"
  reading: "inactive"
- compound: "Cc1cnc(NC(=O)c2ccccn2)s1"
  measured-property: "Potency"
  reading: "4.47 µM (active)"
- compound: "CCOc1cc(/C=N/n2cnnc2)c(Br)cc1O"
  measured-property: "Potency"
  reading: "5.62 µM (active)"
- compound: "CCOc1ccc(C(=O)NC(=S)Nc2ccc(NC(=O)C(C)C)cc2)cc1[N+](=O)[O-]"
  measured-property: "Potency"
  reading: "inactive"
- compound: "CCN(CC)c1ccc(/C=N/Nc2nc(C)cc(=O)[nH]2)cc1"
  measured-property: "Potency"
  reading: "inactive"
- compound: "CN(C)c1ccc(/C=C/C(=O)c2ccc(C(C)(C)C)cc2)cc1[N+](=O)[O-]"
  measured-property: "Potency"
  reading: "inactive"
- compound: "Cc1ccc(SCC(=O)Nc2ncc(C)s2)cc1"
  measured-property: "Potency"
  reading: "inactive"
- compound: "COc1ccccc1NC(=O)/C=C/C(=O)O"
  measured-property: "Potency"
  reading: "inactive"
- compound: "Cc1cc(C)nc(N/N=C/c2ccncc2)n1"
  measured-property: "Potency"
  reading: "inactive"
- compound: "COc1ccc(C(=O)Nc2cccnc2)cc1C(=O)Nc1cccnc1"
  measured-property: "Potency"
  reading: "inactive"
- compound: "Cc1cc(C)n(-c2cc(Oc3ccccc3)ncn2)n1"
  measured-property: "Potency"
  reading: "inactive"
- compound: "Cc1cc(O)cc(O)c1C(=O)Cc1cnn(-c2ccccc2)c1"
  measured-property: "Potency"
  reading: "0.355 µM (active)"
- compound: "COc1cccc2c(N/N=C/c3ccco3)cc(C)nc12"
  measured-property: "Potency"
  reading: "inactive"
- compound: "Cc1cc(Nc2ccc(Cl)cc2)nc(N2CCOCC2)n1"
  measured-property: "Potency"
  reading: "inactive"
- compound: "CN(C)c1ccc(/C=C/C(=O)c2ccc(O)cc2)cc1[N+](=O)[O-]"
  measured-property: "Potency"
  reading: "5.01 µM (active)"
- compound: "Cc1cc(N/N=C\\c2ccc(Br)cc2)nc(-n2nc(C)cc2C)n1"
  measured-property: "Potency"
  reading: "1.41 µM (active)"
